Target: H1-histaminergic receptors (Rattus norvegicus, UniProt P31390)
Sequence (P31390 whole entry): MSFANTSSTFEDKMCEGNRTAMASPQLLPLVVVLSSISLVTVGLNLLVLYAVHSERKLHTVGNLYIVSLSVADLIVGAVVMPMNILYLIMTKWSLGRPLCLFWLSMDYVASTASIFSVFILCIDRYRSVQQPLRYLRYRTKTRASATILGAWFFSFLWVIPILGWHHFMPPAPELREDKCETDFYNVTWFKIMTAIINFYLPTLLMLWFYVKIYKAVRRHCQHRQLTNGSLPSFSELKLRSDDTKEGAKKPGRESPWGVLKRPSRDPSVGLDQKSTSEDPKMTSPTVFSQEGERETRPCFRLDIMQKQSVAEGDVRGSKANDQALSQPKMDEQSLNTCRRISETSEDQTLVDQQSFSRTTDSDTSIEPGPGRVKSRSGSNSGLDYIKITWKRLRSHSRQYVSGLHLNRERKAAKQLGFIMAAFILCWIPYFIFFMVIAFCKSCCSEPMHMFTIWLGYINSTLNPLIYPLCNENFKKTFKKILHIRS
property.label: pKi
Friendly reminder that pKi comes from taking -log10 of the concentration in mol/L.

[in] Write down the reported pKi (system: H1-histaminergic receptors (Rattus norvegicus, UniProt P31390)) of CC(CO)(C(=O)O)c1ccc(C(O)CCCN2CCC(C(O)(c3ccccc3)c3ccccc3)CC2)cc1 (stereo not shown)
[out] 6.44
